biological target: recombinant DYRK1A kinase (Homo sapiens (Human)); test: DYRK1A kinase assay (Ser/Thr 18 peptide Z-lyte FRET); conditions: DYRK1A kinase activity, Z-lyte Ser/Thr 18 peptide, 15 μM ATP; method text calls the value IC50; read-out: EC50 (the source's name)
pIC50: −log10 of the molar value.
Observation type: pIC50

Structure as smiles | Result value
COc1nc(N[C@H]2CCN(C(C)=O)C[C@H]2F)nn2ccc(-c3ccc4ncccc4c3)c12 | 8.68
COc1nc(N[C@H]2CC[C@H](NC(C)=O)CC2)nn2ccc(-c3ccc4nccn4c3)c12 | 8.92

[a] COc1nc(N[C@H]2CC[C@](C)(O)CC2)nn2cc(F)c(-c3ccc4ncnn4c3)c12
[b] COc1nc(N[C@H]2C[C@H](C(C)(C)O)C2)nn2ccc(-c3ccc4ncccc4c3)c12
Hi! Which is lower in terms of pIC50, the first one a or the second one b ? Pick one; state its label.
b

---

Quick reference: pEC50 of the listed items.
system: Tau phosphorylation at Thr212 (pThr212) in HEK293T cells transfected with DYRK1A and MAPT; experiment: Tau phosphorylation phosphoTau (Thr212) AlphaLISA assay in HEK293T cells transfected with DYRK1A and MAPT; format: cell-based; details: HEK-293T, HEK293T cells transiently transfected with human DYRK1A and MAPT, compound treatment 18-24 hours, read-out: pTau (Thr212) EC50
// scale note: pEC50 = -log10(conc_M); give the bare number

Structure as smiles | pEC50
COc1nc(N[C@H]2CC[C@](C)(O)CC2)nn2ccc(-c3ccc4nccn4c3)c12 | 7.45
COc1nc(N[C@H]2CC[C@](C)(O)CC2)nn2ccc(-c3cnc4nccn4c3)c12 | 7.82
COc1nc(NC2CC3(COC3)C2)nn2ccc(-c3cnc4nccn4c3)c12 | 7.87
COc1nc(N[C@H]2CCN(C3COC3)C[C@H]2F)nn2ccc(-c3ccc4ncccc4c3)c12 | 7.12
COc1nc(N[C@H]2CC[C@](C)(O)CC2)nn2ccc(-c3cc(F)c4nccn4c3)c12 | 6.89

Supply pEC50 value. Item: COc1nc(N[C@H]2CC[C@@](C)(O)CC2)nn2ccc(-c3cnc4nc(C)n(CC(F)F)c4c3)c12
7.67

Supply pEC50 value. Item: COc1nc(NC2CCC3(CC2)COC3)nn2ccc(-c3cnc4nccn4c3)c12
8.00

Supply pEC50 value. Item: COc1nc(N[C@@H]2CCC(F)(F)C2)nn2ccc(-c3cnc4nccn4c3)c12
7.24

---

molecular target: recombinant DYRK1A kinase (Homo sapiens (Human), UniProt Q13627); test: DYRK1A kinase assay (Ser/Thr 18 peptide Z-lyte FRET); conditions: DYRK1A kinase activity, Z-lyte Ser/Thr 18 peptide, 15 μM ATP; method text calls the value IC50; read-out: EC50 (the source's name)
pIC50: −log10 of the molar value.
Observation type: pIC50

Molecule | Measurement target | pIC50
COc1nc(N[C@H]2CCN(C(=O)C3(C#N)CC3)C[C@H]2F)nn2ccc(-c3ccc4nnn(CC(F)F)c4c3)c12 | recombinant DYRK1A kinase (Homo sapiens (Human), UniProt Q13627) | 9.30
COc1nc(N[C@@H]2CCN(C)C[C@@H]2F)nn2ccc(-c3ccc4nc(C)n(CC(F)F)c4c3)c12 | recombinant DYRK1A kinase (Homo sapiens (Human), UniProt Q13627) | 8.55
CCO[C@H]1C[C@@H](Nc2nc(OC)c3c(-c4cnc5nccn5c4)ccn3n2)C1 | recombinant DYRK1A kinase (Homo sapiens (Human), UniProt Q13627) | 8.82

[1] CNC(=O)c1cnn2ccc(-c3ccn4nc(NC5CCC6(CC5)COC6)nc(OC)c34)cc12
[2] COc1nc(N[C@@H]2CCN(C)C[C@@H]2F)nn2ccc(-c3ccn4nccc4c3)c12
[3] CC[C@]1(O)CC[C@H](Nc2nc(OC)c3c(-c4cnc5nccn5c4)ccn3n2)CC1
[4] COc1nc(N[C@@H]2CCCOC2)nn2ccc(-c3ccc4ncccc4c3)c12
[5] COc1nc(N[C@@H]2CCC(F)(F)C2)nn2ccc(-c3cnc4nccn4c3)c12
Sort (5 molecules) by pIC50: min first. Record the ranking as a list of labels in the requested order.
4, 2, 5, 1, 3

[P] COc1nc(N[C@H]2CC[C@@H](OC(F)(F)F)CC2)nn2ccc(-c3cnc4nccn4c3)c12
[Q] COc1nc(N[C@@H]2CC[C@H]2OC)nn2ccc(-c3cnc4nccn4c3)c12
Hi! Which is lower in terms of pIC50, the first one P or the second one Q ? Pick one; state its label.
Q

[A] COc1nc(NC2CCC(F)(F)CC2)nn2ccc(-c3cnc4nccn4c3)c12
[B] COc1nc(N[C@H]2CCN(C3COC3)C[C@H]2F)nn2ccc(-c3cc(F)c4nc(C)n(CC(F)F)c4c3)c12
Hi! Which is lower in terms of pIC50, the first one A or the second one B ? Pick one; state its label.
B
(B: 8.52, A: 8.74)

[1] COc1nc(N[C@H]2CCN(C(C)=O)C[C@H]2F)nn2ccc(-c3cc(F)c4nc(C)n(CC(F)F)c4c3)c12
[2] COc1nc(NC2CCC3(CC2)COC3)nn2ccc(-c3ccc4ncnn4c3)c12
Of 1 and 2 , whose reported pIC50 is the larger number? Pick one; state its label.
1
(1: 8.59, 2: 8.35)

---

molecular target: recombinant DYRK1A kinase (Homo sapiens (Human)); test: DYRK1A kinase assay (Ser/Thr 18 peptide Z-lyte FRET); format: biochemical; settings: DYRK1A kinase activity, Z-lyte Ser/Thr 18 peptide, 15 μM ATP; method text calls the value IC50; read-out: EC50 (the source's name)
pIC50: −log10 of the molar value.
Observation type: pIC50

// below: answered molecules
Structure as smiles | pIC50
COc1nc(N[C@@H]2CCN(C)CC2(F)F)nn2ccc(-c3ccc4nnn(CC(F)F)c4c3)c12 | 8.80
COc1nc(N[C@@H]2CN(C(C)=O)C[C@@H]2F)nn2ccc(-c3cc(F)c4nc(C)n(CC(F)F)c4c3)c12 | 8.55
COc1nc(N[C@@H]2CN(C3COC3)C[C@@H]2F)nn2ccc(-c3ccc4nc(C)n(CC(F)F)c4c3)c12 | 8.64
COc1nc(N[C@H]2CCN(C3(C#N)COC3)C[C@H]2F)nn2ccc(-c3ccc4nnn(C(C)C)c4c3)c12 | 8.11

[I] COCCO[C@H]1CC[C@@H](Nc2nc(OC)c3c(-c4ccn5nccc5c4)ccn3n2)CC1
[II] COc1nc(N[C@H]2CN(C)C[C@H]2F)nn2ccc(-c3ccc4nc(C)n(CC(F)F)c4c3)c12
Of I and II , whose reported pIC50 is the larger number? Pick one; state its label.
II

---

target: recombinant DYRK1A kinase (Homo sapiens (Human), UniProt Q13627); test: DYRK1A kinase assay (Ser/Thr 18 peptide Z-lyte FRET); conditions: DYRK1A kinase activity, Z-lyte Ser/Thr 18 peptide, 15 μM ATP; method text calls the value IC50; read-out: EC50 (the source's name)
Observation type: IC50 (nM)

[I] COc1nc(N[C@@H]2CCNCC2(F)F)nn2ccc(-c3cnc4nccn4c3)c12
[II] COc1nc(N[C@H]2CCN(C3COC3)C[C@H]2F)nn2cc(F)c(-c3ccc4ncccc4c3)c12
[III] COc1nc(N[C@@H]2CCN(C(C)=O)CC2(F)F)nn2ccc(-c3ccc4ncn(CC(F)F)c4c3)c12
Sort (3 compounds) by IC50: min first. Record the ranking as a list of labels in the requested order.
III, II, I

[A] COc1nc(N[C@H]2CC[C@@](C)(O)CC2)nn2ccc(-c3ccc4nccn4c3)c12
[B] COc1nc(N[C@H]2C[C@@](C)(NC(=O)OC(C)(C)C)C2)nn2ccc(-c3ccc4nccnc4c3)c12
[C] COc1nc(N[C@@H]2CCN(CCO)CC2(F)F)nn2ccc(-c3cc(F)c4nc(C)n(CC(F)F)c4c3)c12
[D] CCC(=O)N[C@]1(C)C[C@@H](Nc2nc(OC)c3c(-c4ccc5nnn(C)c5c4)ccn3n2)C1
[E] COc1nc(N[C@H]2C[C@@](C)(O)C2)nn2ccc(-c3ccn4nccc4c3)c12
Sort (5 compounds) by IC50: min first. Record the ranking as a list of labels in the requested order.
D, C, E, A, B

[1] COc1nc(N[C@@H]2CCN(C3COC3)C[C@@H]2F)nn2ccc(-c3ccc4nccnc4c3)c12
[2] COc1nc(N[C@@H]2CCN(C(C)=O)CC2(F)F)nn2ccc(-c3cc(F)c4nc(C)n(C(C)C)c4c3)c12
[3] COc1nc(N[C@H]2C[C@@](C)(N)C2)nn2ccc(-c3ccc4nnn(C)c4c3)c12
Returns the items ordered by IC50, from maximum to minimum. Record the ranking as a list of labels in the requested order.
3, 1, 2

[a] CNC(=O)C12CC(Nc3nc(OC)c4c(-c5ccc6nnn(C)c6c5)ccn4n3)(C1)C2
[b] CCC(=O)N1CC[C@@H](Nc2nc(OC)c3c(-c4ccc5nnn(CC(F)F)c5c4)ccn3n2)[C@@H](F)C1
Of a and b , whose reported IC50 is the larger number? Pick one; state its label.
a
